Tested on: Canis familiaris
methodDescription: Diuretic activity in mongrel dog anesthetized with sodium pentobarbital assessed as urine K+ level at 1 mg/kg, iv measured after 15 to 45 mins post dose (reference value: 5 to 104 uequiv/min)
Format: functional, Canis lupus familiaris
Field: label. Allowed values: rule met (Activity < 70 uEq/min) or rule not met (Activity >= 70 uEq/min).

hey, is Activity for `CC(=O)C(=Cc1ccc(OCC(=O)O)cc1Cl)C(C)=O` lower than 70 uEq/min or not?
rule not met

Input `CC(=O)C(=Cc1ccc(OCC(=O)O)c(Cl)c1Cl)C(C)=O` ; condition: Activity strictly below 70 uEq/min. Does it hold?
rule not met

Hi there! Is Activity for `CC(=O)C(=Cc1ccc(OCC(=O)O)c2ccccc12)C(C)=O` below 70 uEq/min, do you know?
rule not met

# strict comparison: is reported Activity < 70 uEq/min? input = `CCC(=O)/C(=C/c1ccc(OCC(=O)O)c(Cl)c1Cl)C(C)=O`
rule met

Is it true that Activity reported for CC(=O)C(C(C)=O)C(SCC(=O)O)c1ccc(OCC(=O)O)c(Cl)c1Cl (configuration not stated) is less than 70 uEq/min?
rule not met

Strictly below 70 uEq/min: is that where Activity of CC(=O)C(C(C)=O)C(Sc1ccccc1C(=O)O)c1ccc(OCC(=O)O)c(Cl)c1Cl (configuration not stated) sits?
rule not met

Determine whether this molecule shows Activity lower than 70 uEq/min (ties excluded): CSC(c1ccc(OCC(=O)O)c(Cl)c1Cl)C(C(C)=O)C(C)=O (configuration not stated)
rule not met

Activity strictly < 70 uEq/min for this molecule? CC(=O)C(C(C)=O)C(SCCO)c1ccc(OCC(=O)O)c(Cl)c1Cl (configuration not stated)
rule not met

Lab log: compare recorded Activity with 70 uEq/min; is it strictly lower for C=C(CC)C(=O)c1ccc(OCC(=O)O)c(Cl)c1Cl [ETHACRYNIC ACID] ?
rule met

Just wondering, is Activity of `CC(=O)C(=Cc1ccc(OCC(=O)O)c(C)c1C)C(C)=O` below 70 uEq/min?
rule met
